- Tested on: U251 CNS
- method: NCI-60 one-dose screen, 48 h
- protocol-conditions: 10 µM unless noted
This is part of a sample that, as a whole, favours compounds with a hit. Of some 83,000 tested, about 20% had one in any assay. Active and inactive are the calls of the source. Rule for the calls: active = growth percent below 10; inactive = the rest.
// one of active, inactive, no free text

Some solved entries appear below for comparison.
[
  {
    "compound": "C[C@H]1[C@H]2C3=CC[C@@H]4[C@@]5(C)C/C(=C/c6ccncc6)C(=O)C(C)(C)[C@@H]5CC[C@@]4(C)[C@]3(C)CC[C@@]2(C(=O)N2CCN(C)CC2)CC[C@@H]1C",
    "experimental-system": "U251 CNS",
    "category-label": "inactive"
  },
  {
    "compound": "C=C(C)[C@@H]1CC[C@]2(CNCCO)CC[C@]3(C)[C@H](CC[C@@H]4[C@@]5(C)CCC(N)[C@@](C)(CO)[C@@H]5CC[C@]43C)[C@@H]12 (stereo not given in full)",
    "experimental-system": "U251 CNS",
    "category-label": "active"
  },
  {
    "compound": "COc1ccc(/C=C2\\COc3ccc(O)c(O)c3C2=O)c(OC)c1",
    "experimental-system": "U251 CNS",
    "category-label": "inactive"
  },
  {
    "compound": "C#CC[C@H](N)C(=O)O",
    "experimental-system": "U251 CNS",
    "category-label": "inactive"
  },
  {
    "compound": "O=C1Nc2ccccc2/C1=N/N=C/c1ccc(OC2OC(CO)C(O)C(O)C2O)cc1 (stereo not given)",
    "experimental-system": "U251 CNS",
    "category-label": "inactive"
  }
]

From here, focus on the item given below.
Q: Per the assay record, what outcome was assigned to `Nc1nc(Nc2ccc(Cl)cc2)nn1S(=O)(=O)c1ccc(-c2ccc(F)cc2)cc1` ?
Ans: inactive

---

# key: entry, value: growth
- System: HT29 colon
- method: NCI-60 one-dose screen, 48 h (100 = growth as untreated, 0 = no growth, -100 = all killed)
- protocol-conditions: 10 µM unless noted
Compounds without any hit were thinned out: in the full panel of roughly 83,000, 20% have a hit. The source made the active and inactive calls. Rule for the calls: active = growth percent below 10; inactive = the rest.

[
  {
    "compound": "O=S(=O)(Cc1ccccc1)c1nc2ccccc2s1",
    "experimental-system": "HT29 colon",
    "growth": "25.6% (inactive)"
  },
  {
    "compound": "CCO/C=N/C1=C(C#N)C(c2ccc(OC)cc2)c2c(c3ccccc3n(C)c2=O)O1 (stereo not drawn)",
    "experimental-system": "HT29 colon",
    "growth": "104% (inactive)"
  }
]

Q: What measured growth goes with COc1cc(C2CC(=O)Nc3n[nH]c(-c4ccccc4)c32)cc(OC)c1OC (stereo not drawn) ?
Ans: 47.1% (inactive)

Q: Query: growth; subject: `CN1CCN(c2ccc(Nc3ncc(Cl)c(NC[C@@H]4CCCO4)n3)cc2)CC1`
Ans: 16% (inactive)

Q: I'd like to know its growth. The compound in question is `N#Cc1c(N)n2c(nc1=Nc1ccc([N+](=O)[O-])cc1)sc1cc(Cl)ccc12`
Ans: 99.2% (inactive)

Q: Returns the measured growth for the input compound. Input: OC(CBr)c1ccnc2ccccc12 (stereo not drawn)
Ans: 85.1% (inactive)

Q: Recorded growth of `COc1ccc(NC(=O)c2cccc(-c3cc(=O)c4c(O)c(OC)c(OC)cc4o3)c2)cc1` , please.
Ans: 87.7% (inactive)

Q: Any idea what growth was measured for `COc1cc2oc(-c3cccc(C(=O)Nc4ccc(C#N)cc4)c3)cc(=O)c2c(O)c1OC` ?
Ans: 53.9% (inactive)

Q: Endpoint output: growth of `Cc1csc(NC(=O)c2sc3nc(-c4cccs4)ccc3c2N)n1` . Value?
Ans: 102% (inactive)

Q: Reported growth for `COc1cc2oc3cc(C)oc(=O)c3c2cc1OC` : what is it?
Ans: 91.5% (inactive)

Q: For the compound shown here, O=C(/C=C/C12c3ccccc3C(c3ccccc31)C1C(=O)NC(=O)C12)c1ccc(Cl)cc1 (stereo not drawn) , give the reported growth.
Ans: 7.13% (active)

Q: Need growth of `COc1cccc(-c2cnco2)c1OCc1c(C)c(COc2c(OC)cccc2-c2cnco2)c(C)c(COc2c(OC)cccc2-c2cnco2)c1C` , thanks.
Ans: 32.7% (inactive)

Q: Consider the compound `COc1cc2ccccc2cc1C(=O)NC(=S)Nc1ccc(-c2nc3ccccc3[nH]2)cc1` and give its measured growth.
Ans: 72.7% (inactive)
